TEST DETAILS: yeast display, Sf9 membrane polyspecificity reagent, FACS + sequencing; frameworks hold sequencing errors
OBSERVABLE: polyreactivity (PSR sort gate)

Below, 4 sequences whose answers are already recorded.
QVQLVESGGGLVQAGGSLRLTCAASGFTFDTYAMGWYRQAPGKEREFVATISRNSGSTYYADSVKGRFTIARDNAKNTVYLQMNSLKPEDTAVYYCNRRRYGRKSDRMNYWGQGTQVTVSS high polyreactivity
QVQLVQSGGGLVQAGGSLRLSCAASGSTFLSKAMGWYRQAPWKERQLVAAITTSGTSTFYADSVKGRFTISRDNAKNTVYLQMNSLKPADTAVYCAKDYLPYLHFVAPSTGDYDYWGQGTQVTVSS low polyreactivity
QVQLVESGGGLVQAGGSLRLSCAASGRIFSGYALGWYRQAPGKERELVAAISQRGGSTTYADSVKGRFTISRDNAKNTVYLQMNSLKPEDTAVYYCAKRYTYPSGYDYWGQGTEVTVSS low polyreactivity
QVQLVESGGGLVQAGGSLRLSCAASGSTFRYNAMGWYRQAPGKERELVAAITSSGGRTYYADSVKGRFTISRDNAKKTVYLQRISLKPEDTAVYYCDAYAYYHTGDDYWGQGTQVTVSS high polyreactivity

Attention now turns to another entry.
Look up and state reported polyreactivity (PSR sort gate) for `QVQLVESGGGLVQAGGSLRISCAASGFTFPLYAMGWYRQAPGKERELVAAINYRGSSTYYADSVKGRFTISRDNAKNTVYLHMNSLKPEYTAVYYCNAADPVWNQVYWGSNEYDYWGQGTQVTVSS` high polyreactivity
